Settings: Crystal; DTA
readout: Normal melting temperature (°C)

Some solved entries appear below for comparison.
compound="CCCCCCCCCCCCCCCCCCO [1-octadecanol]" observed_measurement=58.5
compound="CCCCCCCCCCCCCCCCO [1-hexadecanol]" observed_measurement=50

I = CCCCCCCCCCCCCCO [1-tetradecanol]
II = CCCCCCCCCCO [decan-1-ol]
III = CCCCCCCCO [octan-1-ol]
Sort low-to-high on Normal melting temperature, please. Labels, ranked as asked. III, II, I
